Task for the reader: assign each of the following compounds its reported pIC50.
Molecular target: PTP-1B (Homo sapiens, UniProt P18031)
Construct: PTP-1B (purified, 1 mg/mL) as a 1:250 dilution
Sequence (P18031 1-321 limits assumed): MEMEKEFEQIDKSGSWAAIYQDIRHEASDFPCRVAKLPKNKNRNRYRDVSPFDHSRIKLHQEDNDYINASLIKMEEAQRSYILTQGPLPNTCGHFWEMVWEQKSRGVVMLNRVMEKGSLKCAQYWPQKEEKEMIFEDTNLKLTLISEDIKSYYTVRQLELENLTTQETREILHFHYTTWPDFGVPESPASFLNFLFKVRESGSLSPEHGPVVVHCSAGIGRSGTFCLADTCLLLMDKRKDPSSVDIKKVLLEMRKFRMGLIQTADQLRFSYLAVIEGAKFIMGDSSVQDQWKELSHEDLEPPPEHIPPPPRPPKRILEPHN
Assay: pNPP assay for tyrosine phosphatase inhibitory activity
Assay type: biochemical
Conditions: Table 1; pNPP substrate 10 mM, 30° C., 10 minutes, absorbance at 405 nm
pIC50: −log10 of the molar value.

Quick one: give measured pIC50 for O=C(O)c1ccc(-c2cnc(N(Cc3ccc(C(F)(F)P(=O)(O)O)c(Br)c3)c3ccccc3)o2)cc1 [Example 5] 6.30 to 7.00

Quick one: give measured pIC50 for COC(=O)c1ccc(-c2cnc(N(Cc3ccc(C(F)(F)P(=O)(O)O)c(Br)c3)c3ccc(Cl)c(Cl)c3)o2)cc1 [Example 2] 6.00 to 6.30

Quick one: give measured pIC50 for O=P(O)(O)C(F)(F)c1ccc(CN(c2ccc(Cl)c(Cl)c2)c2ncc(-c3ccccc3)o2)cc1Br [Example 1] 5.00 to 6.00

Quick one: give measured pIC50 for CS(=O)(=O)c1ccc(-c2cnc(N(Cc3ccc(C(F)(F)P(=O)(O)O)c(Br)c3)c3ccc(Cl)c(Cl)c3)o2)cc1 [Example 6] > 7.00

Quick one: give measured pIC50 for COC(=O)c1ccc(CN(Cc2ccc(C(F)(F)P(=O)(O)O)cc2)c2nnc(-c3cccc(Oc4ccccc4)c3)o2)cc1 4.00 to 5.00

Quick one: give measured pIC50 for COC(=O)c1cccc(Oc2cccc(-c3nnc(N(Cc4ccc(C(F)(F)P(=O)(O)O)cc4)c4ccc(Cl)c(Cl)c4)o3)c2)c1 [Example 22] 5.00 to 6.00

Quick one: give measured pIC50 for O=C(O)c1cccc(Oc2cccc(-c3nnc(N(Cc4ccc(C(F)(F)P(=O)(O)O)cc4)c4ccc(Cl)c(Cl)c4)o3)c2)c1 [Example 23] 5.00 to 6.00
